systemTested: HLA-C*12:03
assayProtocol: IEDB peptide-MHC binding, purified MHC/direct/fluorescence; filed as Kd, often an IC50 or EC50 that approximates it; bounds were set here for any values at or beyond the usual limits of such assays
details: source organism: Influenza A virus (A/swine/Italy/1521/98(H1N2))
pKd: −log10 of the molar value.

[
  {
    "residueCodes": "FLKDVMESM",
    "pKd": "≥ 9.00"
  }
]

====

systemTested: HLA-B*15:01
assayProtocol: IEDB peptide-MHC binding, purified MHC/competitive/fluorescence; filed as Kd, often an IC50 or EC50 that approximates it; bounds were set here for any values at or beyond the usual limits of such assays
details: source organism: Brucella melitensis bv. 1 str. 16M

[
  {
    "residueCodes": "RPNPDFNTF",
    "Kd [nM]": 3000
  }
]
